Target: Luciferin 4-monooxygenase (Photinus pyralis) (UniProt P08659)
Sequence (P08659 whole entry, looked up): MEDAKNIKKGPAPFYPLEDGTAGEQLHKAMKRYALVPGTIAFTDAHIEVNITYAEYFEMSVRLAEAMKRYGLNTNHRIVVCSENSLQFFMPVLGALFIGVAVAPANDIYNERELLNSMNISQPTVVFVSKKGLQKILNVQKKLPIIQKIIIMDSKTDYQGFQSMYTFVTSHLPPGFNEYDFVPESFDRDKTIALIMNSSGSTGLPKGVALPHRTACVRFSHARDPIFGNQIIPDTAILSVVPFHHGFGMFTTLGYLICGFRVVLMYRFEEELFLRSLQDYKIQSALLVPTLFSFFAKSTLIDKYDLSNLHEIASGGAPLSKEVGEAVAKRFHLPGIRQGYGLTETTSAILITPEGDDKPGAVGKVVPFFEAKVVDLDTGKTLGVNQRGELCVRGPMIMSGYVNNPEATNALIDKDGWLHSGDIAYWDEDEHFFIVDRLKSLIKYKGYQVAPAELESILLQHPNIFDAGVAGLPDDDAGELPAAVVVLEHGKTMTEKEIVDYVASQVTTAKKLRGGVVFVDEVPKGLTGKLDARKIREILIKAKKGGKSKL
Assay: FLuc inhibitory activity for the follow-up compounds in a biochemical assay with Km concentrations of substrate and 500microM CoASH
Settings: purified FLuc, Km substrates + 500 uM CoASH, luminescence; series mostly up to 57.5 µM
Results filed as inconclusive are left out. Calls of active or inactive are those of the source. Calls come from the whole dose curve; as a rule, active = well fitted inhibition curve with a large enough effect; inconclusive = small, poorly fitted or top-dose-only effect; inactive = flat fitted curve, though single readings scatter.
Entries and their Potency

| substance.smiles | reported |
| --- | --- |
| CC(C)C(=O)Nc1cccc(C(=O)Nc2ccccc2C(=O)O)c1 | 7.3 µM (active) |
| O=C(Nc1cccc(-c2nc3ccccc3s2)c1)C1=COCCO1 | 7.3 µM (active) |
| Cc1ccc(C(=O)Nc2ccccc2C(=O)O)cc1S(=O)(=O)N1CCCCCC1 | 0.919 µM (active) |
| Cc1ccc2nc(-c3ccc(N)cc3)sc2c1 | 0.0326 µM (active) |
| O=C(Nc1ccccc1C(=O)O)c1cccc(S(=O)(=O)N2CCCC2)c1 | 18.3 µM (active) |
| CC(=O)Nc1cccc(C(=O)Nc2ccccc2C(=O)O)c1 | 20.6 µM (active) |
| CCOc1ccc2nc(NC(=O)c3ccccc3)sc2c1 | 0.206 µM (active) |

Here's the next entry for you.
Which Potency reading was recorded for the compound O=C(Nc1ccccc1C(=O)O)c1ccc(Cl)c(S(=O)(=O)N2CCOCC2)c1 ?
5.8 µM (active)
